assay: Clearance in cynomolgus monkey at 0.5 mg/kg, iv administered as single dose measured upto 24 hrs by LC-MS/MS analysis relative to hepatic blood flow; format: ADME, organism-based, Macaca fascicularis; conditions: in vivo
measured.endpoint: clearance

{"smiles.structure": "O=S(=O)(Nc1ccncn1)c1cc2c(cc1F)[C@@H](N1CC[C@H](C(F)(F)F)C[C@@H]1c1ccccn1)CCO2", "result": "8 to 44%"}

###

assay: Volume of distribution at steady state in Beagle dog at 0.5 mg/kg, iv administered as single dose measured upto 24 hrs by LC-MS/MS analysis; type: ADME, organism-based, Canis lupus familiaris; settings: in vivo, read-out: Vdss

{"smiles.structure": "O=S(=O)(Nc1ccncn1)c1cc2c(cc1F)[C@@H](N1CC[C@H](C(F)(F)F)C[C@@H]1c1ccccn1)CCO2", "unit.annotation": "L/kg", "Vd": 0.74}

###

experiment: Volume of distribution at steady state in cynomolgus monkey at 0.5 mg/kg, iv administered as single dose measured upto 24 hrs by LC-MS/MS analysis; format: ADME, organism-based, Macaca fascicularis; details: in vivo, read-out: Vdss

{"smiles.structure": "O=S(=O)(Nc1ccncn1)c1cc2c(cc1F)[C@@H](N1CC[C@H](C(F)(F)F)C[C@@H]1c1ccccn1)CCO2", "Vd": "0.66 L/kg"}

###

The following molecules are listed with their measured logD values.
test: Lipophilicity, log D of compound at pH 7.4; assay type: physicochemical; settings: buffer

{"smiles.structure": "O=S(=O)(Nc1ccc(F)cn1)c1cc2c(cc1F)[C@@H](N1CC[C@H](C(F)(F)F)C[C@@H]1c1ccc(F)cc1)CCO2", "logD": 5}
{"smiles.structure": "Cn1ccc([C@H]2C[C@@H](C(F)(F)F)CCN2[C@H]2CCOc3cc(S(=O)(=O)Nc4ccncn4)c(F)cc32)n1", "logD": 1.3}
{"smiles.structure": "O=S(=O)(Nc1ccncn1)c1cc2c(cc1F)[C@@H](N1CC[C@H](C(F)(F)F)C[C@@H]1c1ccccn1)CCO2", "logD": 1.4}
